- target_entity: T1, human ROR2 expressed on the cell surface (human, UniProt Q01974 34-943)
- T1 construct: Endogenous ROR2 of human tumour cell lines; also called cell surface ROR2; ROR2 on tumour cell lines
- protocol_description: flow cytometry, JN DSRCT cells (DSRCT)
- Parameters: unit not given here
readout_kind: binding intensity

1. ROR2-90 full length human IgG1 antibody (antibody, V domains shown, also called clone #90; antibody #90) VH: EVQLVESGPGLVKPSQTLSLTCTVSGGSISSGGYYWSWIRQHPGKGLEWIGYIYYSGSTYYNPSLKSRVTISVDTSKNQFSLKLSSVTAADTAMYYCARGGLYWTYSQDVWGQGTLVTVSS VL: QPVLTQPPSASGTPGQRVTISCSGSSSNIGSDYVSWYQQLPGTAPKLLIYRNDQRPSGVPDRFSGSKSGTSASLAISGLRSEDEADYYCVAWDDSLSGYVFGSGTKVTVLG    84
2. ROR2-241 full length human IgG1 antibody (antibody, V domains shown) VH: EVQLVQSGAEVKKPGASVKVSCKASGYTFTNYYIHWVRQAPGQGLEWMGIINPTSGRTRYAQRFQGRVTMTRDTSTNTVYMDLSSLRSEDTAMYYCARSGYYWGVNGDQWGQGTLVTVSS VL: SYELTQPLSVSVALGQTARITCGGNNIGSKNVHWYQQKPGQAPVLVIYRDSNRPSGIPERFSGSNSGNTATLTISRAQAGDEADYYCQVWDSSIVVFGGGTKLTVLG    27
3. ROR2-27 full length human IgG1 antibody (antibody, V domains shown, also called clone #27; clone #027 IgG1) VH: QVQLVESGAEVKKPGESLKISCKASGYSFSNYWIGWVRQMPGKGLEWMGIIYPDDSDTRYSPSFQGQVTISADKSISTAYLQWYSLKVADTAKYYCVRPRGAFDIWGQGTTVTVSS VL: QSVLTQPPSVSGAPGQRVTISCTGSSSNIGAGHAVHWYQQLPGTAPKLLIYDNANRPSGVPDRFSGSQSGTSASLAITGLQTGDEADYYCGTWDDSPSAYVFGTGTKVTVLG    5
4. ROR2-23 full length human IgG1 antibody (antibody, V domains shown, The light chain of clone 023 is labelled kappa; also called clone #23; clone #023 IgG1) VH: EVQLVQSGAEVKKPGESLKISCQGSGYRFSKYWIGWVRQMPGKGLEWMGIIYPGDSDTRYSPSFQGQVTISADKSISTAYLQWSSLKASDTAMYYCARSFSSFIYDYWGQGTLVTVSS VL: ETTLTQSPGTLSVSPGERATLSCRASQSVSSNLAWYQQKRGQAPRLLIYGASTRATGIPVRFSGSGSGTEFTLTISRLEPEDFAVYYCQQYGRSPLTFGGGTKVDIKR    50
